# system_under_test: hM4 receptors (Homo sapiens, UniProt P08173)
# Sequence (P08173 whole entry): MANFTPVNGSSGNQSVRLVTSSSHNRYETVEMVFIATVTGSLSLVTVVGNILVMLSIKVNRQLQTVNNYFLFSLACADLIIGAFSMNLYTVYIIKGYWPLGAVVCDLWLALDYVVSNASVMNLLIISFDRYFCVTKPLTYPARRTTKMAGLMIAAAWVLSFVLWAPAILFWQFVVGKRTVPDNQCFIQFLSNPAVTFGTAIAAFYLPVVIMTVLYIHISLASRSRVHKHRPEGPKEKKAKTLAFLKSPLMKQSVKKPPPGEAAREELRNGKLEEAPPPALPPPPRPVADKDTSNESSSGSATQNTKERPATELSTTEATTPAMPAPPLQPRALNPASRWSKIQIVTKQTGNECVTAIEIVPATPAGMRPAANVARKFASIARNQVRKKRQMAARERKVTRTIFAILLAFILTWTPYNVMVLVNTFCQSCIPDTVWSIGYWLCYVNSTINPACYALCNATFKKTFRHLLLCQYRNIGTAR
# assay_comment: Human M4 PAM PERK assay (CHO cells, TR-FRET, with EC20 acetylcholine)
pEC50: −log10 of the molar value.
Reported pEC50 values for a set of compounds

Value of pEC50 reported for the compound COc1cc(N2CC(CC(=O)N3Cc4c(C)c(Cl)c(=O)n(C)c4C3)C2)ccn1 [Compound I-77] is > 7.30

* * *

# system_under_test: human M4 receptor (Homo sapiens)
# Construct: expressed in transfected cells; host or cells: CHO-K1 cells (membranes)
# assay_comment: M4 GTPγS PAM assay (CHO-K1 membranes, 35S-GTP binding, with EC20 acetylcholine)
# Assay type: biochemical
# condition_parameters: with EC20 acetylcholine (40 nM)
Each entry below carries its recorded EC50.

{"given_smiles": "Cc1cc(=O)n(C)c2c1CN(C(=O)CC1CN(c3cccc(C#N)c3)C1)C2", "reported": "200 to 1000 nM"}
{"given_smiles": "Cc1c2c(n(C)c(=O)c1C)CN(C(=O)CC1CN(c3ncns3)C1)C2", "reported": "50 to 200 nM"}
{"given_smiles": "Cc1c2c(n(C)c(=O)c1Cl)CN(C(=O)CC1CN(c3ccnc(C(F)(F)F)c3)C1)C2", "reported": "< 50 nM"}

Noted for Cc1cc(=O)n(C)c2c1CN(C(=O)C(C)(C)C1CN(c3ccnc(C(F)(F)F)c3)C1)C2 : its EC50 reads > 1000 nM

Note to self: EC50 recorded for Cc1c2c(n(C)c(=O)c1C)CN(C(=O)CC1CN(c3ccc(C(C)(C)O)c(F)c3)C1)C2 was < 50 nM

* * *

# system_under_test: hM4 receptors (Homo sapiens, UniProt P08173)
# assay_comment: Human M4 PAM PERK assay (CHO cells, TR-FRET, with EC20 acetylcholine)
This listing pairs compounds with measured EC50.

Check out these entries, answers already filled in.
{"compound": "Cc1cc(=O)n(C)c2c1CN(C(=O)CC1CN(c3ccc(C4CC4)cc3)C1)C2 [Compound I-19]", "system_under_test": "hM4 receptors (Homo sapiens, UniProt P08173)", "result_type": "EC50", "reported": "200 to 1000 nM"}
{"compound": "Cc1cc(=O)n(CC(F)(F)F)c2c1CN(C(=O)CC1CN(c3ccc(C(F)(F)F)cc3)C1)C2 [Compound I-105]", "system_under_test": "hM4 receptors (Homo sapiens, UniProt P08173)", "result_type": "EC50", "reported": "> 1000 nM"}

Reported EC50 for Cc1cc(=O)n(C)c2c1CN(C(=O)CC1CN(c3cc(F)cc(C4CC4)c3)C1)C2 [Compound I-4] was 50 to 200 nM

Recorded result, Cc1c2c(n(C)c(=O)c1Cl)CN(C(=O)C(C)C1CN(c3ccnc(C(F)(F)F)c3)C1)C2 (single isomer, unassigned) [Compound I-83] , EC50: > 1000 nM

get_value(item= Cc1cc(=O)n(C)c2c1CN(C(=O)CC1CN(c3ccc(C#N)c(C(F)(F)F)c3)C1)C2 [Compound I-27] , readout=EC50) returns 50 to 200 nM

Given item Cc1cc(=O)n(C)c2c1CN(C(=O)CC1CN(c3cc(F)cc(F)c3)C1)C2 [Compound I-36] , the value recorded as its EC50 is < 50 nM

compound Cc1c2c(n(C)c(=O)c1F)CN(C(=O)CC1CN(c3ccc(C4CC4)c(F)c3)C1)C2 [Compound I-88] , EC50 observed: < 50 nM

Attribution: patent US20260209220A1
